Biological target: Mucin 1 (MUC1) on MCF-7 cells; aptamer designed against the VNTR region (UniProt P15941)
Sequence (P15941 whole entry): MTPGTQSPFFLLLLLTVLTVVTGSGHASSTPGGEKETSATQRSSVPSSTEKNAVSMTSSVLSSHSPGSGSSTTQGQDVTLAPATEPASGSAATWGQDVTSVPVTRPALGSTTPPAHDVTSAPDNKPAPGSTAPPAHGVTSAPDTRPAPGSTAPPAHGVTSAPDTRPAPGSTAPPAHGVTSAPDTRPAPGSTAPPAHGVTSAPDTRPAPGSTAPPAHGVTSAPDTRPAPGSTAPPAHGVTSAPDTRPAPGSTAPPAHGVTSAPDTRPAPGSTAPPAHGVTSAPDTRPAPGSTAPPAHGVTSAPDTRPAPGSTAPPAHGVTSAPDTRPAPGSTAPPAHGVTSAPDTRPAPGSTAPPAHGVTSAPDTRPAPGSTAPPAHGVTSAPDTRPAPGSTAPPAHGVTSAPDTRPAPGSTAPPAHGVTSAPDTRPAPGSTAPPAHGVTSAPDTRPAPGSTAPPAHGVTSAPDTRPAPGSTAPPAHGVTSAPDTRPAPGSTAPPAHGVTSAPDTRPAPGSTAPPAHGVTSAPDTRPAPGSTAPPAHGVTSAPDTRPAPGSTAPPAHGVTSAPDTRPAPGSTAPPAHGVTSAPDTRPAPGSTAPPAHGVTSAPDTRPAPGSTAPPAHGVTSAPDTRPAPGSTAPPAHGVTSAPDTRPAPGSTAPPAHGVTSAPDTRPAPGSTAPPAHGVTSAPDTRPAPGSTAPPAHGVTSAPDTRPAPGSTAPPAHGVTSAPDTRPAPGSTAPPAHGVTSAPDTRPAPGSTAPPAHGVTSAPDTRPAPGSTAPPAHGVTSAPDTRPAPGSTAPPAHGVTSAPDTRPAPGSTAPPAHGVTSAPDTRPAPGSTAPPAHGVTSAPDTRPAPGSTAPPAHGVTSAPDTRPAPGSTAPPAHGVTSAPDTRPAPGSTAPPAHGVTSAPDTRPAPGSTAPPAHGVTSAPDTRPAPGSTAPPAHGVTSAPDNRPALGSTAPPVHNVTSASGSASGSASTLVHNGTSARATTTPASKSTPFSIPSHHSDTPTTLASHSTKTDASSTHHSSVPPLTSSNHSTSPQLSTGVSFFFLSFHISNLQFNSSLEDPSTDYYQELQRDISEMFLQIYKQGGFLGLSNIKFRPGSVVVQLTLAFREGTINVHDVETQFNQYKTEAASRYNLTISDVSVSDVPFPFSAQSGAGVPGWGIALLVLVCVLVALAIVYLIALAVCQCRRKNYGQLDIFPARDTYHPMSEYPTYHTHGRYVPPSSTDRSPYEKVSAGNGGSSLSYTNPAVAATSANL
Experiment: whole-cell capture on magnetic beads (fluorescence)
Details: A-r-M13-MB, PFA-treated rigid phage, multivalent (apparent), 5' DBCO, coupled to N3-PEG on M13 phage sidewall, 5x10^4 DAPI-stained MCF-7 cells added to 500 uL A-f-M13-MB (resuspended in PBS), 30 min, 37 C, one-site fit over aptamer concentration
measured_endpoint: Kd
Give the value; after it, write the unit.

*Q* Kindly state the measured Kd obtained for TTTTTGCAGTTGATCCTTTGGATACCCTGG [DBCO-Apt (S2.2) clicked on M13 pVIII] with Mucin 1 (MUC1) on MCF-7 cells; aptamer designed against the VNTR region (UniProt P15941).
*A* 0.0248 nM

----------
Target: Mucin 1 (MUC1) on MCF-7 cells; aptamer designed against the VNTR region
Assay: whole-cell capture on magnetic beads (fluorescence)
Conditions: A-MB, multivalent (apparent), 5' NH2, coupled to carboxyl magnetic beads, 5x10^4 DAPI-stained MCF-7 cells added to 500 uL A-f-M13-MB (resuspended in PBS), 30 min, 37 C, one-site fit over aptamer concentration
measured_endpoint: pKd
Please treat pKd as minus the base-10 logarithm of the molar concentration.

*Q* Please look up its pKd: TTTTTGCAGTTGATCCTTTGGATACCCTGG [NH2-Apt (S2.2) on magnetic beads]
*A* 7.68
